Target: mOREG (Mus musculus)
Sequence (Q920P2 1-313): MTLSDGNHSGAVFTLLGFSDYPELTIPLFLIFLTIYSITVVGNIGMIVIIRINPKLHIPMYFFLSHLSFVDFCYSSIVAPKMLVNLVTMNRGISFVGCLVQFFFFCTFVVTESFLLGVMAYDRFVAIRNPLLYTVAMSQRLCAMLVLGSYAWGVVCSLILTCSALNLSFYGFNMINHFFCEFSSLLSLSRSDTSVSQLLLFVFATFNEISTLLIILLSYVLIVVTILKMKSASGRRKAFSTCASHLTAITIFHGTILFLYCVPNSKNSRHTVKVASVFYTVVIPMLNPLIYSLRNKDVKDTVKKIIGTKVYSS
Test: Ca2+-imaging, control receptor mOREG
Assay type: cell-based
Details: compound applied at 4 μM; read-out: Percent Inhibition mOREG
Measured Endpoint: inhibition at 4 µM

> print(dat)
                                   compound  meas.value
1  c1ccc(CNc2nc(NCc3ccco3)nc(N3CCOCC3)n2)cc1 [RU-0020050]   26 to 50%
2  COc1ccc(-c2cc(-c3ccccc3)n(C(=O)CN3CCN(Cc4ccccc4)CC3)n2)cc1 [RU-0038795]   26 to 50%
3  COC(=O)C(Cc1ccccc1)NC(=O)C1CC1(c1ccccc1)c1ccccc1 (stereo not drawn) [RU-0028029]       < 25%
4  CC(C)CN(Cc1nccn1Cc1ccc(Cl)cc1Cl)C(=O)c1ccccc1F [RU-0055322]   26 to 50%
5  Cc1ccc(-n2nc(C)c(CCC(=O)N3CCc4ccccc4C3)c2C)cc1Cl [RU-0026074]       < 25%
6  CCCCCCCC(=O)N1CCCC(C(=O)NC2CCCC[C@H]2NC(=O)c2ccccc2C)C1 (stereo partly drawn) [RU-0045756]   26 to 50%
7  O=C(c1ccco1)N(Cc1nccn1Cc1ccccc1Cl)CC1CC1 [RU-0047281]   26 to 50%
8  Cc1nn(-c2ccc(Cl)cc2)c(C)c1C(=O)NCc1ccccn1 [RU-0048608]       < 25%
9  CCCCc1nc(CN2CCc3c([nH]c4ccccc34)C2c2cccc(OC)c2OC)c[nH]1 (stereo not drawn) [RU-0031879]   26 to 50%
